The entries below are paired with their reported pIC50.
Target: ROCK1 (Homo sapiens (Human), UniProt Q13464)
Sequence (Q13464 whole entry, species assumed): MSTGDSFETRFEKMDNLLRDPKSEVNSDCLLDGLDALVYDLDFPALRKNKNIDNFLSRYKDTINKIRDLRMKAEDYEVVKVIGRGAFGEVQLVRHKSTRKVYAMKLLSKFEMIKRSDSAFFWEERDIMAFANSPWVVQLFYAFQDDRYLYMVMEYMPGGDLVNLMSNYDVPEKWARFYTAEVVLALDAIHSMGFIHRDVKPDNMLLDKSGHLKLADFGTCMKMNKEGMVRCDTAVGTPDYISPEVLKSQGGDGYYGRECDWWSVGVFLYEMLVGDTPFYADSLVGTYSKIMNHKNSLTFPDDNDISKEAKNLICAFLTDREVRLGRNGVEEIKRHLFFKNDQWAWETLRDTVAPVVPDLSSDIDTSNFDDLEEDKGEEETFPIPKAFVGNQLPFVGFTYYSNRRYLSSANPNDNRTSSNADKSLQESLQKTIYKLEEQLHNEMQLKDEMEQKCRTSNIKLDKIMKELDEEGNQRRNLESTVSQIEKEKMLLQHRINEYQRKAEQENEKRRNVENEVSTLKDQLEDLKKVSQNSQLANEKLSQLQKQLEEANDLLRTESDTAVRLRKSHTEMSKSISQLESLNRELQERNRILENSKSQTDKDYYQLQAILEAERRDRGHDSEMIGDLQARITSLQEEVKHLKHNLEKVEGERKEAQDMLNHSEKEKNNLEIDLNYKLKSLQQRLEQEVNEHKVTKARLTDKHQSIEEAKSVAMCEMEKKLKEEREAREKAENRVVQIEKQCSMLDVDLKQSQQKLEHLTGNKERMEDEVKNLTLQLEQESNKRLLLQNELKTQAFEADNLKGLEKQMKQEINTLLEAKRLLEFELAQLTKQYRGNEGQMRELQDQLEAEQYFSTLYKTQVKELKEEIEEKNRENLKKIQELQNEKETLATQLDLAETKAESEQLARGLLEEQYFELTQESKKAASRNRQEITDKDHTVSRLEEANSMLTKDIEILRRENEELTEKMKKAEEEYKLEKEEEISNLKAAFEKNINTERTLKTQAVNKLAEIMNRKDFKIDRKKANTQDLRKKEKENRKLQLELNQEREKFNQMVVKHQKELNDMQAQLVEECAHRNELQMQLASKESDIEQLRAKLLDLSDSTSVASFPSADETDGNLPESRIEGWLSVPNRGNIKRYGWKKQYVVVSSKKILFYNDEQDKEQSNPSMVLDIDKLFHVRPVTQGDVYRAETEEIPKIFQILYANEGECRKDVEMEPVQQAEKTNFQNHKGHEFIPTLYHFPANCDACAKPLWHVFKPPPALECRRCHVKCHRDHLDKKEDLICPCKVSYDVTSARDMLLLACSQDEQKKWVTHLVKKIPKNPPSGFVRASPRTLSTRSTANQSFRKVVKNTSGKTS
Assay: ROCK assay (LABCHIP peptide phosphorylation), ROCK1
Assay type: biochemical
Settings: 5 μM ATP, 1.5 μM peptide substrate; read-out: ROCK1 IC50
pIC50: −log10 of the molar value.
Measure name: pIC50

INSERT INTO assay_data (molecule, measure_name, recorded_value) VALUES
  ('COCC(O)Cn1cc(C(=O)Nc2ccc(-c3n[nH]c(=O)c4ccccc34)cc2)cn1 (centres unmarked)', 'pIC50', '6.00 to 7.00'),
  ('O=C(Nc1ccc(-c2n[nH]c(=O)c3ccccc23)c(CO)c1)c1nn(CCC2CCOCC2)c2ccccc12', 'pIC50', '6.00 to 7.00'),
  ('O=C(Nc1ccc(-c2n[nH]c(=O)c3ccccc23)cc1)c1nc2ccccc2s1', 'pIC50', '7.00 to 10.00'),
  ('O=C(O)COc1ccc2c(c1)N(C(=O)Cc1ccc(-c3n[nH]c(=O)c4ccccc34)cc1)CC2', 'pIC50', '7.00 to 10.00'),
  ('CC(C)(C)n1cc(NC(=O)c2ccncc2)c(C(=O)Nc2ccc(-c3n[nH]c(=O)c4ccccc34)cc2)n1', 'pIC50', '6.00 to 7.00'),
  ('CC(C)Oc1ccc2c(c1)N(C(=O)Cc1ccc(-c3n[nH]c(=O)c4ccccc34)cc1)CC2', 'pIC50', '7.00 to 10.00'),
  ('COC(=O)CCn1nc(C(=O)Nc2ccc(-c3n[nH]c(=O)c4ccccc34)cc2)c2ccccc21', 'pIC50', '7.00 to 10.00'),
  ('O=C(Nc1ccc(-c2n[nH]c(=O)c3ccccc23)cc1)c1cnn(C2COC2)c1', 'pIC50', '6.00 to 7.00');
